# ASSAY_COMMENT: Plasma PK of brensocatib, BID vs QD oral dosing, Wistar rats
# Type: in vivo
# CONDITION_DETAILS: both sexes, rat, oral QD, 30 mg/kg/day, first 24 h, read-out: AUC(0–24)
READOUT_KIND: AUC(0-t) (µM·h)
Numbers only, in µM·h.

stdin: Return AUC(0-t) (reported value) for this compound: Cn1c(=O)oc2ccc(-c3ccc(C[C@@H](C#N)NC(=O)[C@@H]4CNCCCO4)cc3)cc21 [brensocatib]
stdout: 634

----------
# ASSAY_COMMENT: Plasma PK of brensocatib, BID vs QD oral dosing, C57BL/6 mice
# Assay type: in vivo
# CONDITION_DETAILS: both sexes, mouse, C57BL/6 mice, oral BID, 2 mg/kg/day, first 24 h, read-out: AUC(0–24)
READOUT_KIND: AUC(0-t) (µM·h)
Give bare numbers, in µM·h.

stdin: Please report AUC(0-t) for the following compound: Cn1c(=O)oc2ccc(-c3ccc(C[C@@H](C#N)NC(=O)[C@@H]4CNCCCO4)cc3)cc21
stdout: 4.79

----------
# ASSAY_COMMENT: Plasma PK of brensocatib, BID vs QD oral dosing, BALB/c mice
# Assay type: in vivo
# CONDITION_DETAILS: both sexes, BALB/c, mouse, po, 20 mg/kg/day, oral BID, 20 mg/kg/day, first 24 h, read-out: AUC(0–24)
READOUT_KIND: AUC(0-t)
Units required after the number.

stdin: Supply AUC(0-t) value. Item: Cn1c(=O)oc2ccc(-c3ccc(C[C@@H](C#N)NC(=O)[C@@H]4CNCCCO4)cc3)cc21 [brensocatib]
stdout: 57.3 µM·h

----------
# ASSAY_COMMENT: Plasma PK of brensocatib, BID vs QD oral dosing, Wistar rats
# Assay type: in vivo
# CONDITION_DETAILS: both sexes, rat, oral BID, 2 mg/kg/day, first 24 h, read-out: AUC(0–24)
READOUT_KIND: AUC(0-t) (µM·h)
Numbers only, in µM·h.

stdin: Tell me its AUC(0-t) given Cn1c(=O)oc2ccc(-c3ccc(C[C@@H](C#N)NC(=O)[C@@H]4CNCCCO4)cc3)cc21 [brensocatib] as the entry.
stdout: 23.4

----------
# ASSAY_COMMENT: Plasma PK of brensocatib, BID vs QD oral dosing, BALB/c mice
# Assay type: in vivo
# CONDITION_DETAILS: both sexes, BALB/c, mouse, po, 20 mg/kg/day, oral BID, 20 mg/kg/day, morning dose, read-out: t1/2, AM dose (converted)
READOUT_KIND: half-life (h)
Numbers only, in h.

stdin: Determine its reported half-life: Cn1c(=O)oc2ccc(-c3ccc(C[C@@H](C#N)NC(=O)[C@@H]4CNCCCO4)cc3)cc21
stdout: 2.47

----------
# ASSAY_COMMENT: Plasma PK of brensocatib, BID vs QD oral dosing, Wistar rats
# Type: in vivo
# CONDITION_DETAILS: both sexes, rat, oral QD, 0.3 mg/kg/day, first 24 h, read-out: AUC(0–24)
READOUT_KIND: AUC(0-t)

stdin: For the compound Cn1c(=O)oc2ccc(-c3ccc(C[C@@H](C#N)NC(=O)[C@@H]4CNCCCO4)cc3)cc21 , report AUC(0-t).
stdout: 2.46 µM·h

----------
# ASSAY_COMMENT: Plasma PK of brensocatib, BID vs QD oral dosing, BALB/c mice
# Format: in vivo
# CONDITION_DETAILS: both sexes, BALB/c, mouse, po, 3 mg/kg/day, oral QD, 3 mg/kg/day, first 24 h, read-out: AUC(0–24)
# Experimental: A dose frequency study was performed in male and female mice (C57BL/6 & BALB/c) and in male and female rats (Sprague Dawley & Wistar) investigating twice daily (BID) versus once daily (QD) brensocatib administration. Briefly, animals were weighed and randomized into different treatment groups. […] For sparse PK analysis via LC-MS/MS, plasma was collected from animals during the first 24 h of dosing at prescribed timepoints. […] See section Quantification of Plasma Brensocatib Concentrations for details. […]
READOUT_KIND: AUC(0-t) (µM·h)
Numbers only, in µM·h.

stdin: Quick one: give measured AUC(0-t) for Cn1c(=O)oc2ccc(-c3ccc(C[C@@H](C#N)NC(=O)[C@@H]4CNCCCO4)cc3)cc21 [brensocatib]
stdout: 7.04

----------
# ASSAY_COMMENT: Plasma PK of brensocatib, BID vs QD oral dosing, C57BL/6 mice
# Assay type: in vivo
# CONDITION_DETAILS: both sexes, C57BL/6, mouse, po, 3 mg/kg/day, C57BL/6 mice, oral QD, 3 mg/kg/day, read-out: t1/2, AM dose (converted)
READOUT_KIND: half-life (h)
One number for each entry, in h.

stdin: Read the entry Cn1c(=O)oc2ccc(-c3ccc(C[C@@H](C#N)NC(=O)[C@@H]4CNCCCO4)cc3)cc21 and write its reported half-life.
stdout: 6.38

----------
# ASSAY_COMMENT: Plasma PK of brensocatib, BID vs QD oral dosing, Sprague Dawley rats
# Format: in vivo
# CONDITION_DETAILS: both sexes, Sprague-Dawley, rat, po, 0.2 mg/kg/day, SD rats, oral BID, 0.2 mg/kg/day, evening dose, read-out: t1/2, PM dose (converted)
READOUT_KIND: half-life (min)
Answers are plain numbers, in min.

stdin: Provide half-life value for the following molecule: Cn1c(=O)oc2ccc(-c3ccc(C[C@@H](C#N)NC(=O)[C@@H]4CNCCCO4)cc3)cc21 [brensocatib]
stdout: 33

----------
# ASSAY_COMMENT: Plasma PK of brensocatib, BID vs QD oral dosing, Wistar rats
# Type: in vivo
# CONDITION_DETAILS: both sexes, rat, oral BID, 0.2 mg/kg/day, first 24 h, read-out: AUC0–24h
READOUT_KIND: AUC(0-t)

stdin: Answer with reported AUC(0-t) of Cn1c(=O)oc2ccc(-c3ccc(C[C@@H](C#N)NC(=O)[C@@H]4CNCCCO4)cc3)cc21 [brensocatib]
stdout: 377 ng·h/mL

----------
# ASSAY_COMMENT: Plasma PK of brensocatib, BID vs QD oral dosing, Sprague Dawley rats
# Assay type: in vivo
# CONDITION_DETAILS: both sexes, Sprague-Dawley, rat, SD rats, oral BID, 0.2 mg/kg/day, first 24 h, read-out: AUC(0–24)
READOUT_KIND: AUC(0-t) (µM·h)
Numbers only, in µM·h.

stdin: State, in one line, measured AUC(0-t) of Cn1c(=O)oc2ccc(-c3ccc(C[C@@H](C#N)NC(=O)[C@@H]4CNCCCO4)cc3)cc21 [brensocatib]
stdout: 0.29

----------
# ASSAY_COMMENT: Plasma PK of brensocatib, BID vs QD oral dosing, C57BL/6 mice
# Type: in vivo
# CONDITION_DETAILS: both sexes, mouse, C57BL/6 mice, oral QD, 3 mg/kg/day, first 24 h, read-out: AUC(0–24)
READOUT_KIND: AUC(0-t)

stdin: Respond only with AUC(0-t) recorded for Cn1c(=O)oc2ccc(-c3ccc(C[C@@H](C#N)NC(=O)[C@@H]4CNCCCO4)cc3)cc21
stdout: 6.76 µM·h

----------
# ASSAY_COMMENT: Plasma PK of brensocatib, BID vs QD oral dosing, C57BL/6 mice
# Format: in vivo
# CONDITION_DETAILS: both sexes, C57BL/6, BALB/c, mouse, oral, mice (both strains), across BID and QD regimens, sparse PK, read-out: half-life (overall) (converted)
READOUT_KIND: half-life

stdin: Consider the molecule Cn1c(=O)oc2ccc(-c3ccc(C[C@@H](C#N)NC(=O)[C@@H]4CNCCCO4)cc3)cc21 [brensocatib] and give its recorded half-life.
stdout: ~2.5 h

----------
# ASSAY_COMMENT: Plasma PK of brensocatib, BID vs QD oral dosing, Sprague Dawley rats
# Assay type: in vivo
# CONDITION_DETAILS: both sexes, Sprague-Dawley, rat, po, 2 mg/kg/day, SD rats, oral BID, 2 mg/kg/day, morning dose, read-out: t1/2, AM dose (converted)
# Procedure: A dose frequency study was performed in male and female mice (C57BL/6 & BALB/c) and in male and female rats (Sprague Dawley & Wistar) investigating twice daily (BID) versus once daily (QD) brensocatib administration. Briefly, animals were weighed and randomized into different treatment groups. […] For sparse PK analysis via LC-MS/MS, plasma was collected from animals during the first 24 h of dosing at prescribed timepoints. […] See section Quantification of Plasma Brensocatib Concentrations for details. […]
READOUT_KIND: half-life (min)
Numbers only, in min.

stdin: Given Cn1c(=O)oc2ccc(-c3ccc(C[C@@H](C#N)NC(=O)[C@@H]4CNCCCO4)cc3)cc21 [brensocatib] , respond with its half-life.
stdout: 809
